system: HIV-1 strain IIIB; assay: Retrovirucidal effect on HIV-1 strain IIIB (Table 3); type: cell-based; conditions: pIC50=-log IC50, IC50 in M
Threshold check on HIV1 pIC50 strain IIIB: at or above 8 gives 1, strictly below gives 0.

Does HIV1 pIC50 strain IIIB meet or surpass 8 for CCc1c(C)[nH]c(=O)c(N(C)CCOC)c1Cc1cccc(C)c1 ?
1

Hello, I need to know if CCc1c(C)[nH]c(=O)c(N(C)CCOCc2ccccc2)c1Cc1cccc(C)c1 has measured HIV1 pIC50 strain IIIB not below 8. Thanks!
0

Does the molecule CCc1c(C)[nH]c(=O)c(N)c1C(=O)c1cccs1 have recorded HIV1 pIC50 strain IIIB that is 8 or more?
0

Could you tell me if the measured HIV1 pIC50 strain IIIB of CCc1c(C)[nH]c(=O)c(N(C)C)c1C(=O)Cc1cccc(C)c1 reaches 8 or more?
0

Textbook exercise: given the entry Cc1cc(C)cc(Cc2c3c([nH]c(=O)c2N)CCCC3)c1 , state whether its HIV1 pIC50 strain IIIB is greater than or equal to 8.
0

Answer whether HIV1 pIC50 strain IIIB of CCc1c(C)[nH]c(=O)c(N(C)C)c1Cc1nccs1 is greater than or equal to 8.
0

Cited source for all entries: patent US6683079B2
